study.system: HCMV polymerase (Human cytomegalovirus, UniProt P08546)
Construct: made in house; host or cells: SF-9 insect cells infected with recombinant baculovirus
Sequence (P08546 whole entry): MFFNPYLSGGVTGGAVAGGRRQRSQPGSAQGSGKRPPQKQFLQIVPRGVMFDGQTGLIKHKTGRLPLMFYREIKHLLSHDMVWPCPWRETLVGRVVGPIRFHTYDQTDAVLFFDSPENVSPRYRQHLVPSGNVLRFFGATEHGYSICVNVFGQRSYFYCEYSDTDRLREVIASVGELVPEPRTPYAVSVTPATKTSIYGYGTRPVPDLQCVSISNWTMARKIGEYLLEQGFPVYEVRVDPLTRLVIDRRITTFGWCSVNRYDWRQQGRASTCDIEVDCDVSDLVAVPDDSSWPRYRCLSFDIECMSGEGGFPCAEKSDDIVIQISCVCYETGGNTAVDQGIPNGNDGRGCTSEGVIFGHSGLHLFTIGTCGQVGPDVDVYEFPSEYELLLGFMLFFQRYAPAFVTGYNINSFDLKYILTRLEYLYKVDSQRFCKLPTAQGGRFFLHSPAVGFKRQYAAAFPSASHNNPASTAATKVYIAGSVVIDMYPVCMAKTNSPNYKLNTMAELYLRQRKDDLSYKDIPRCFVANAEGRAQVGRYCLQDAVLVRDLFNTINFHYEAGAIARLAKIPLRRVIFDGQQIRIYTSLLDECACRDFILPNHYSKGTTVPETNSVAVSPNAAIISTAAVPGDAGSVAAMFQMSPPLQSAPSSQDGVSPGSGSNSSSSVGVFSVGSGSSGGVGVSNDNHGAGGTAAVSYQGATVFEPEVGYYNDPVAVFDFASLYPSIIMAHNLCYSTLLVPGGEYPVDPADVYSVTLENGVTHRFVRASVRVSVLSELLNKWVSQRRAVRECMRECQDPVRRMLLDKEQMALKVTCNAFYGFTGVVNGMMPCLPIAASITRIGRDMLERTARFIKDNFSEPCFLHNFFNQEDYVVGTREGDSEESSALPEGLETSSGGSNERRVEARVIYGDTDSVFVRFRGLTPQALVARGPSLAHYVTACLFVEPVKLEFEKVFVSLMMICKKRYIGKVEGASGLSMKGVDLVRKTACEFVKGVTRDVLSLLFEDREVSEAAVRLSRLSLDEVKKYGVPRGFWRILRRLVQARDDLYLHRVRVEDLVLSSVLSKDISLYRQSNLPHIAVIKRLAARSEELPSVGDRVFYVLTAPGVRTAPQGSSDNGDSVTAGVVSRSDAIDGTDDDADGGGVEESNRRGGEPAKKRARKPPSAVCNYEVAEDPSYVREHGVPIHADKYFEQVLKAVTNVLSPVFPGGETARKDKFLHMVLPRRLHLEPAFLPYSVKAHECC
assay.comment: HCMV polymerase assay (scintillation proximity assay)
Type: biochemical
conditions: percentage of inhibition at 25 μM concentration in CMV polymerase assay
measure.name: inhibition at 25 µM (%)

[[record]]
compound = "CCCCCCCCCCCNc1nnc(NC(=O)c2c(C(C)C)cc(C(C)C)cc2C(C)C)s1"
measure_unit = "%"
reported_measurement = 22.5

[[record]]
compound = "NS(=O)(=O)c1ccc(CCNc2nnc(NC(=O)c3ccc(I)cc3)s2)cc1"
measure_unit = "%"
reported_measurement = 71.1

[[record]]
compound = "O=C(Nc1nnc(NCCNc2ccccc2)s1)c1ccc(Cl)c(Cl)c1"
measure_unit = "%"
reported_measurement = 24.9

[[record]]
compound = "COc1ccccc1C(=O)Nc1nnc(NCCc2c[nH]c3ccccc23)s1"
measure_unit = "%"
reported_measurement = 34.7

[[record]]
compound = "O=C(/C=C/c1ccccc1Cl)Nc1nnc(NC2CC2)s1"
measure_unit = "%"
reported_measurement = 30.2

[[record]]
compound = "O=C(/C=C/c1ccccc1)Nc1nnc(NCc2cccc3ccccc23)s1"
measure_unit = "%"
reported_measurement = 32.4


1. CC1(C)C2CC[C@@H](CNc3nnc(NC(=O)c4cc(F)cc(F)c4)s3)C1C2 (stereo partly drawn)
2. CCOc1ccc2ccccc2c1C(=O)Nc1nnc(NCCc2c[nH]c3ccccc23)s1
3. CCCCCCCCCCCNc1nnc(NC(=O)c2ccc3c(c2)C(=O)OC3=O)s1
Order the records so the highest inhibition at 25 µM appears first and the lowest last. Rank them, then answer with their labels in that order.
3, 2, 1
(3: 100%, 2: 55.7%, 1: 26.5%)

====

study.system: HCMV polymerase (Human cytomegalovirus, UniProt P08546)
Construct: made in house; host or cells: SF-9 insect cells infected with recombinant baculovirus
assay.comment: HCMV polymerase assay (scintillation proximity assay)
Type: biochemical
conditions: percentage of inhibition at 25 μM concentration in CMV polymerase assay
measure.name: inhibition at 25 µM (%)

These recorded examples may help you get a feel for the data.
[[record]]
molecule = "O=C(Nc1nnc(NCCc2cccs2)s1)c1ccc(I)cc1"
measure_unit = "%"
reported_measurement = 23.1

[[record]]
molecule = "O=C(Nc1nnc(NCCc2c[nH]c3ccccc23)s1)c1cccc([N+](=O)[O-])c1"
measure_unit = "%"
reported_measurement = 38.4


a. NS(=O)(=O)c1ccc(CCNc2nnc(NC(=O)c3ccc(Cl)c(Cl)c3)s2)cc1
b. O=C(Nc1nnc(NCCc2c[nH]cn2)s1)c1cc2ccccc2s1
c. NS(=O)(=O)c1ccc(CNc2nnc(NC(=O)/C=C/c3ccccc3)s2)cc1
Sort ascending by inhibition at 25 µM. A complete answer lists every label in the requested sequence.
b, a, c
(b: 32.2%, a: 55.4%, c: 90.6%)

a. O=C(Nc1nnc(NCc2cccs2)s1)c1ccc2c(c1)C(=O)OC2=O
b. O=C(CCCCCl)Nc1nnc(NCCc2ccccc2)s1
Of the pair a and b , name the member with the lesser recorded inhibition at 25 µM. Please identify the chosen entry by its label.
b
(b: 29.9%, a: 87.1%)

a. O=C(Nc1nnc(NCC(c2ccccc2)c2ccccc2)s1)c1ccc(Br)cc1
b. CCCCCCCC/C=C/CCCCCCCC(=O)Nc1nnc(NC2CCN(Cc3ccccc3)CC2)s1
Between a and b , which one shows the smaller inhibition at 25 µM number? Write the label of whichever entry you select.
a

I. O=C(Nc1nnc(NCCc2cccs2)s1)c1cccc([N+](=O)[O-])c1
II. O=C(/C=C/c1ccccc1Cl)Nc1nnc(NC2CCCCCC2)s1
III. O=C(Nc1nnc(NCCc2cccs2)s1)c1c(Cl)cccc1Cl
Put the items in sequence by inhibition at 25 µM, from largest down. As an answer, provide the labels arranged in the order called for.
III, II, I

P. CC1(C)C2CC[C@@H](CNc3nnc(NC(=O)/C=C/c4ccccc4Cl)s3)C1C2 (stereo partly shown)
Q. O=C(/C=C/c1ccccc1Cl)Nc1nnc(NCCc2c[nH]cn2)s1
R. CC(C)c1cc(C(C)C)c(C(=O)Nc2nnc(NC[C@@H]3CCC4CC3C4(C)C)s2)c(C(C)C)c1 (stereo partly shown)
# sort list by recorded inhibition at 25 µM, greatest to least Respond with the label ranking, as requested.
Q, P, R
(Q: 65.7%, P: 33.5%, R: 22.5%)

P. CCOc1ccc2ccccc2c1C(=O)Nc1nnc(NCc2ccc(OC)c(OC)c2)s1
Q. CCCCCCCC/C=C/CCCCCCCC(=O)Nc1nnc(NCCCn2ccnc2)s1
inhibition at 25 µM comparison. Which is larger, P or Q ? Reply briefly: the label of your chosen item.
P

I. O=C(Nc1nnc(NC2CCN(Cc3ccccc3)CC2)s1)c1ccc(I)cc1
II. CCCCCCCC/C=C/CCCCCCCC(=O)Nc1nnc(NCc2ccco2)s1
Select the item with the higher value of inhibition at 25 µM from the options I and II listed. // return label of chosen record
II
(II: 41.5%, I: 28.6%)

====

study.system: HCMV polymerase (Human cytomegalovirus, UniProt P08546)
Construct: made in house; host or cells: SF-9 insect cells infected with recombinant baculovirus
assay.comment: HCMV polymerase assay (scintillation proximity assay)
Format: biochemical
conditions: percentage of inhibition at 25 μM concentration in CMV polymerase assay
measure.name: % Inhib (%)
Answer with a number only, understood to be in %.

[[record]]
substance_smiles = "O=C(Nc1nnc(NCCc2ccccc2)s1)c1ccc(S(=O)(=O)F)cc1"
study_system = "HCMV polymerase (Human cytomegalovirus, UniProt P08546)"
measure_unit = "%"
reported_measurement = 20.0

[[record]]
substance_smiles = "O=C(Nc1nnc(NCc2cccc3ccccc23)s1)c1ccc(S(=O)(=O)F)cc1"
study_system = "HCMV polymerase (Human cytomegalovirus, UniProt P08546)"
measure_unit = "%"
reported_measurement = 46.7

[[record]]
substance_smiles = "O=C(Nc1nnc(NC2CCCCCC2)s1)c1ccc(S(=O)(=O)F)cc1"
study_system = "HCMV polymerase (Human cytomegalovirus, UniProt P08546)"
measure_unit = "%"
reported_measurement = 37.5


What value of % Inhib has been reported for the following compound? O=C(Nc1nnc(NCCCN2CCCC2=O)s1)c1ccc(S(=O)(=O)F)cc1
28.1

====

study.system: HCMV polymerase (Human cytomegalovirus)
Construct: made in house; host or cells: SF-9 insect cells infected with recombinant baculovirus
assay.comment: HCMV polymerase assay (scintillation proximity assay)
Type: biochemical
conditions: percentage of inhibition at 25 μM concentration in CMV polymerase assay
measure.name: inhibition at 25 µM (%)

A selection of reference data follows.
[[record]]
substance_smiles = "CCCCCCCCCCCNc1nnc(NC(=O)/C=C/c2ccccc2Cl)s1"
reported_measurement = 43.9

[[record]]
substance_smiles = "CC(C)c1cc(C(C)C)c(C(=O)Nc2nnc(NCC3CCCCC3)s2)c(C(C)C)c1"
reported_measurement = 24.9

[[record]]
substance_smiles = "O=C(Nc1nnc(NCCCCc2ccccc2)s1)c1ccc(Br)cc1"
reported_measurement = 50.5


1. O=C(Nc1nnc(NC2CCN(Cc3ccccc3)CC2)s1)c1ccc(Br)cc1
2. O=C(Nc1nnc(NCc2ccncc2)s1)c1ccc(I)cc1
3. CCOc1ccc2ccccc2c1C(=O)Nc1nnc(NCCc2cccs2)s1
Sort (3 molecules) by inhibition at 25 µM: min first. Output spec: a listing of the labels in the requested order.
1, 2, 3
(1: 20.8%, 2: 36%, 3: 65.8%)

a. COc1ccccc1C(=O)Nc1nnc(NCCc2ccccc2)s1
b. O=C(Nc1nnc(NCc2ccc(F)cc2)s1)c1ccc2c(c1)C(=O)OC2=O
Which of the two items, a and b , has the greater recorded inhibition at 25 µM? Select an item and report its label.
b
(b: 99.8%, a: 32.5%)

====

study.system: HCMV polymerase (Human cytomegalovirus)
Construct: made in house; host or cells: SF-9 insect cells infected with recombinant baculovirus
assay.comment: HCMV polymerase assay (scintillation proximity assay)
Type: biochemical
conditions: percentage of inhibition at 25 μM concentration in CMV polymerase assay
measure.name: % Inhib (%)
Number only, in %; omit the unit.

Examples with answers:
[[record]]
substance_smiles = "O=C(Nc1nnc(NC2CCN(Cc3ccccc3)CC2)s1)c1ccc(S(=O)(=O)F)cc1"
measure_name = "% Inhib"
reported_measurement = 20.7

[[record]]
substance_smiles = "O=C(Nc1nnc(NCCc2c[nH]c3ccccc23)s1)c1ccc(S(=O)(=O)F)cc1"
measure_name = "% Inhib"
reported_measurement = 66.1

[[record]]
substance_smiles = "CCCCCCCCCCCNc1nnc(NC(=O)c2ccc(S(=O)(=O)F)cc2)s1"
measure_name = "% Inhib"
reported_measurement = 80.3


Consider now this further compound.
HCMV polymerase (Human cytomegalovirus) / % Inhib / O=C(Nc1nnc(NCCC(c2ccccc2)c2ccccc2)s1)c1ccc(S(=O)(=O)F)cc1 : value?
43.9

====

study.system: HCMV polymerase (Human cytomegalovirus)
Construct: made in house; host or cells: SF-9 insect cells infected with recombinant baculovirus
assay.comment: HCMV polymerase assay (scintillation proximity assay)
Assay type: biochemical
conditions: percentage of inhibition at 25 μM concentration in CMV polymerase assay
Description: The compounds of the present invention are tested in an polymerase assay to show activity described below, which is indicative of a compound's activity and thus of its use as an anti-viral agent. […]
measure.name: inhibition at 25 µM (%)

[[record]]
compound = "Cc1ccc(C(=O)Nc2nnc(NCc3ccc4c(c3)OCO4)s2)cc1"
measure_name = "inhibition at 25 µM"
reported_measurement = 48.3

[[record]]
compound = "CCCCCCCC/C=C/CCCCCCCC(=O)Nc1nnc(NCCCCc2ccccc2)s1"
measure_name = "inhibition at 25 µM"
reported_measurement = 63.5

[[record]]
compound = "CCOC(=O)N1CCC(Nc2nnc(NC(=O)c3cc4ccccc4s3)s2)CC1"
measure_name = "inhibition at 25 µM"
reported_measurement = 28.5


a. N#Cc1ccc(C(=O)Nc2nnc(NCC(c3ccccc3)c3ccccc3)s2)cc1
b. CCCCCCCC/C=C/CCCCCCCC(=O)Nc1nnc(NCCc2c[nH]cn2)s1
c. CC1(C)C2CC[C@@H](CNc3nnc(NC(=O)c4ccc([N+](=O)[O-])o4)s3)C1C2 (stereo partly drawn)
d. O=C(Nc1nnc(NCCNc2ccccc2)s1)c1ccc2c(c1)C(=O)OC2=O
Order the entries by their reported inhibition at 25 µM, beginning at the minimum. Sort the labels as requested; that list is your answer.
b, c, a, d
